Tested on: RAW-Dual
Experiment: NF-kB SEAP reporter activity, fold change vs agonist alone; higher = enhanced NF-kB activity
Conditions: library stock concentration (final ~1000-fold dilution): 10 mM; cytotoxicity flag (confluency mask): not cytotoxic; agonist: Imiquimod (TLR7) […]
Over roughly 2,900 compounds, “NF-kB SEAP reporter activity, fold change vs agonist alone” has its median near 0.99; the highest 2% begin near 2.6. What follows is part of a selection rich in the highest values, with near analogues and random picks from the rest.
Returns rule met if the recorded NF-kB SEAP reporter activity is greater than or equal to 0.9, and rule not met otherwise.

Query: Reported NF-kB SEAP reporter activity at or above 0.9? "Cc1c[nH]c(C=C2C(=O)Nc3ccccc32)c1CCC(=O)O"
Response: rule not met

Query: Reported NF-kB SEAP reporter activity at or above 0.9? "CCn1cc(-c2ccnc3[nH]c(-c4cccc(CN(C)C)c4)cc23)c(-c2ccc(NC(=O)N(C)C)cc2)n1"
Response: rule met

Query: Reported NF-kB SEAP reporter activity at or above 0.9? "COc1cc(OC)c(/C=C2/C(=O)Nc3ccccc32)c(OC)c1"
Response: rule met

Query: Reported NF-kB SEAP reporter activity at or above 0.9? CC(C)(F)CC(NC(c1ccc(-c2ccc(S(C)(=O)=O)cc2)cc1)C(F)(F)F)C(=O)NC1(C#N)CC1 (stereo unspecified)
Response: rule met

Query: Reported NF-kB SEAP reporter activity at or above 0.9? "Fc1ccc2[nH]ccc2c1-c1nc(N2CCOCC2)c2sc(CN3CCN(CC4CC4)CC3)cc2n1"
Response: rule met
